# Test system: P. aeruginosa PaΔ3-LAC (efflux-deficient)
# MEASUREMENT DESCRIPTION: microbe, parasite or virus in culture
# Format: cell-based
# EXPERIMENTAL PARAMETERS: Pseudomonas aeruginosa, at least three independent measurements, read-out: MIC
READOUT LABEL: MIC

COMPOUND: O=C(N[C@H](CO)[C@H](O)c1ccc([N+](=O)[O-])cc1)C(Cl)Cl [Chloramphenicol]
MIC: 1 µg/mL

The record that follows has no MIC shown yet.
Exercise: Give the measured MIC for CN[C@H](CC(C)C)C(=O)N[C@H]1C(=O)N[C@@H](CC(N)=O)C(=O)N[C@H]2C(=O)N[C@H]3C(=O)N[C@H](C(=O)N[C@H](C(=O)O)c4cc(O)cc(O)c4-c4cc3ccc4O)[C@H](O)c3ccc(c(Cl)c3)Oc3cc2cc(c3O[C@@H]2O[C@H](CO)[C@@H](O)[C@H](O)[C@H]2O[C@H]2C[C@](C)(N)[C@H](O)[C@H](C)O2)Oc2ccc(cc2Cl)[C@H]1O [Vancomycin]
Key: 1020 µg/mL

Source of measurements: patent US11021521B2
